Source: PubChem BioAssay

Target: Albumin (Bos taurus) (UniProt P02769)
Sequence (P02769 whole entry, looked up): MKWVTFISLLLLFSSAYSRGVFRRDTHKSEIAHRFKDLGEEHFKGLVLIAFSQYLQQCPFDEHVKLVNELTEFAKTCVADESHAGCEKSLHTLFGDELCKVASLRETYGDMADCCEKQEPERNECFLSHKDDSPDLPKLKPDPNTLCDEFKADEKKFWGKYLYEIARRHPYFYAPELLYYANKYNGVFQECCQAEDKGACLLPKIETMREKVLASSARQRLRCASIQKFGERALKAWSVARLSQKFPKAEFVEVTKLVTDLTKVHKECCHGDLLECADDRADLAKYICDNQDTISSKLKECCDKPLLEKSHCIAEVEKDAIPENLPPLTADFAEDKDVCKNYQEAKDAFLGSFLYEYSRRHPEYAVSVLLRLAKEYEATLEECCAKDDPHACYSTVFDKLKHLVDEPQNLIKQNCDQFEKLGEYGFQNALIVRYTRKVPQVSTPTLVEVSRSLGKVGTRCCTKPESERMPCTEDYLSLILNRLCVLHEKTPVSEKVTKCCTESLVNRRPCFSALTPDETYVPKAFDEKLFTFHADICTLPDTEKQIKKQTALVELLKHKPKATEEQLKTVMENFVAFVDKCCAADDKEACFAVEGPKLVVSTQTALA
Experiment: bovine serum albumin binders on microarray, profiling panel, artefact control for SMM control protein annotation, biochemical, small-molecule microarray, Alexa647 label, 635/667 nm fluorescence (AID 1118);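 also: score merges 667 nm emission intensity and signal-to-noise per printed compound spot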
Conditions: BSA-A647 binding, fluorescence 635 nm, higher = more signal
Our labelling divides records by composite z-score into ranges: low end (below -0.5), middle (-0.5 to below 0.7), high end (0.7 or more)

# molecule, class.name
records = [
    ("COc1cc(Br)cc(C(O)C2C=CC3C(=O)N(C)C(=O)C3N2N2CCCCC2)c1OC (stereo unspecified)", "middle"),
    ("COC(=O)C(CC#Cc1ccc2c(c1)[C@]1(C(=O)N2)[C@H](C(=O)Nc2nc3ccccc3s2)[C@H]2C(=O)O[C@H](c3ccccc3)[C@H](c3ccccc3)N2[C@@H]1c1ccc(O)cc1)C(=O)OC", "middle"),
    ("O=C1OCCC/C=C\\[C@H]2OC34C=CCN(Cc5ccccc5)C(=O)[C@H]3N(CCCO)C(=O)[C@@H]4C12 (stereo partly specified)", "low end"),
]

Lab note: which band did [N-]=[N+]=Nc1ccccc1[C@@H]1OC(c2ccc(OCCCO)cc2)=N[C@]1(CCS(=O)(=O)c1ccccc1)C(N)=O land in?
high end

Lab note: which band did CN(C)CCCC[C@@H]1NC(=O)[C@H]2C[C@@H](C(=O)NCCCCCCN)[C@@H](c3ccc(O)cc3)N2C1=O land in?
high end

Lab note: which band did O=C1O[C@@H](c2ccccc2)[C@@H](c2ccccc2)N2[C@@H](c3ccccc3OCCO)[C@]3(C(=O)Nc4ccccc43)[C@@H](C(=O)Nc3nc4ccccc4s3)[C@H]12 land in?
high end

Lab note: which band did CC(C)OC(=O)C=C1C[C@@H](c2ccccn2)O[C@@H](c2ccccn2)O1 land in?
middle

Lab note: which band did CC(C)C[C@@H]1NC(=O)[C@H](C(C)C)NC(=O)[C@@]23C(=O)N[C@@H](Cc4ccccc4)C2[C@H](C)[C@@]2(C)O[C@H]2C3/C=C/CC/C=C/CNC1=O (stereo partly specified) land in?
middle

Lab note: which band did O=C(c1ccccc1)N1C(=O)[C@@]2(Cc3ccccc31)N=C(c1ccc(OCCCO)cc1)O[C@H]2c1ccccc1 land in?
low end

Lab note: which band did COc1ccc([Si](C)(C)[C@H]2[C@H](CC(=O)N3Cc4ccccc4C[C@H]3CO)O[C@@]3(C(=O)N(Cc4cccc(N5CCC5=O)c4)c4ccccc43)[C@@H]2C)cc1 land in?
low end

====

Target: Epidermal growth factor receptor (Homo sapiens)
Experiment: EGFR binders on small-molecule microarrays, primary screen, biochemical, small-molecule microarray, 635 nm fluorescence (AID 1104);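 also: score merges 667 nm emission intensity with spot signal to noise over triplicate slides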
Conditions: EGFR binding, higher = more signal
Let's look at some compounds and their measured composite z-score.
Please give the numeric answer without any surrounding text.

Consider the following illustrative entries.
# compound, measured.property, reported
measured = [
    ("C=C[C@H](C)[C@@H](OC(=O)Nc1ccc(OC)cc1)c1ccc(O)c2ccccc12", "composite z-score", -0.568),
    ("CC1(C)[C@@H]2CC(C(O)C3C=CC4C(=O)N(c5ccccc5)C(=O)C4N3Nc3ccc([N+](=O)[O-])cc3)=C[C@H]1C2 (some centres not stated)", "composite z-score", 0.604),
    ("CCC(CC)C(O)C1C=CC2C(=O)NC(=O)C2N1Nc1ccc(Cl)cc1Cl (configuration not stated)", "composite z-score", -0.304),
    ("O=C1c2ccccc2[C@](Cc2ccccc2I)(C(=O)NCCN2CCOCC2)[C@H](c2ccc(CO)cc2)N1Cc1ccccc1Cl", "composite z-score", 0.629),
    ("CC1CC/C=C\\[C@H]2OC34C=CCN(C(C)(C)C)C(=O)[C@H]3N(CCO)C(=O)[C@@H]4C2C(=O)O1 (some centres not stated)", "composite z-score", -1.33),
    ("C=CCNC(=O)[C@H]1[C@@H]2C(=O)O[C@@H](c3ccccc3)[C@@H](c3ccccc3)N2[C@@H](c2ccccc2OCCO)[C@]12C(=O)Nc1ccc(C#CCCO)cc12", "composite z-score", -0.281),
]

Value wanted: composite z-score (Epidermal growth factor receptor (Homo sapiens)) of entry Cc1ccc([C@@H]2C[C@@H](Sc3ccccc3)[C@H](C(=O)O)CN2S(=O)(=O)c2ccc(C)cc2)cc1
0.271

Value wanted: composite z-score (Epidermal growth factor receptor (Homo sapiens)) of entry COCCOC(=O)N1C(=O)[C@@]2(c3ccccc31)[C@H](c1ccccc1OCCO)N1[C@H](c3ccccc3)[C@H](c3ccccc3)OC(=O)[C@H]1[C@@H]2C(=O)N1CCN(c2ncccn2)CC1
0.792

Value wanted: composite z-score (Epidermal growth factor receptor (Homo sapiens)) of entry O=C1O[C@H](c2ccccc2)[C@H](c2ccccc2)N2[C@H]1[C@@H](C(=O)N1CCCCCCC1)[C@]1(C(=O)Nc3ccc(C#CCCO)cc31)[C@H]2c1ccccc1OCCO
2

Value wanted: composite z-score (Epidermal growth factor receptor (Homo sapiens)) of entry C[N+](C)(C)CCCCNC(=O)[C@@H]1C[C@@H]2C(=O)N[C@@H](Cc3ccccc3)C(=O)N2[C@@H]1c1cccc(OCCO)c1
-0.35

Value wanted: composite z-score (Epidermal growth factor receptor (Homo sapiens)) of entry COC(=O)[C@@]1(Cc2ccc(F)cc2)[C@H]2c3cc(C(=O)N(C)C)n(Cc4ccc(Cl)c(C(F)(F)F)c4)c3C[C@H]2CN1C(=O)c1ccccc1
0.175
